B1: AUP1 (parent)
chain: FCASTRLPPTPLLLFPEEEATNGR

Variants of: B1
Experiment Notes: protein stability index of a GFP-peptide fusion (GPS, HEK-293T) (PSI 1-6); higher = more stable;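 note: lentivirally expressed fusions sorted by FACS into six bins by GFP to DsRed ratio, PSI derived from sequencing read proportions per bin multiplied by bin number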
Condition Set: c terminus: a fixed tail appended
Below: a set of entries, each annotated with reported protein stability index.
# output: bare number, no unit

These recorded examples may help you get a feel for the data.
Var: A20P
Assay Result: 2.75
//
Var: R6C
Assay Result: 2.7

Problem: Supply reported protein stability index belonging to this variant: C2F
Solution: 3.1

Problem: Provide measured protein stability index value, entry: C2V
Solution: 1.55

Problem: Please look at this variant and report its protein stability index: G23P
Solution: 2.75

Problem: Note protein stability index for the variant shown: P9Q
Solution: 2.62

Problem: For the variant T5V , give its reported protein stability index.
Solution: 2.83

Problem: Complete the entry with protein stability index for R24W
Solution: 1.34

Problem: Answer with reported protein stability index of R6A
Solution: 3.37

Problem: Annotate the variant E18I with its measured protein stability index.
Solution: 2.4

Problem: Using known records, supply protein stability index for T5R
Solution: 1.99

Problem: Tell me protein stability index reported for G23Y
Solution: 2.32

Problem: Given S4K , respond with its protein stability index.
Solution: 3.01
